test system: Caco-2 cell monolayer; experiment: Cellular accumulation (CA) of flavonoids in Caco-2 cell monolayer; details: accumulated in cell monolayer after transport basolateral to apical, 40 μM, 1 h, normalized to cellular protein, mean ± SD, n = 3
Marks after values point to notes of the source that are not given here.
Measured quantity: CA B to A

Query: So what does the record say about CA B to A for O=c1cc(-c2ccccc2)oc2cc(O)cc(O)c12 [Compound 7, Chrysin] ?
Result: 8.828 ± 0.213 ^b μmol/g

Query: So what does the record say about CA B to A for O=c1cc(-c2ccc(O)cc2)oc2cc(O)cc(O)c12 [Compound 6, Apigenin] ?
Result: 7.610 ± 0.694 ^b μmol/g

Query: So what does the record say about CA B to A for O=C1C[C@@H](c2ccc(O)cc2)Oc2cc(O)cc(O)c21 [Compound 19, Naringenin] ?
Result: 4.436 ± 0.299 ^b μmol/g

Cited source for all entries: paper PMC5748751
